- test.description: Tmax in C57Bl/6 mouse muscle at 10 mg/kg, po
- Assay type: ADME, organism-based, Muscle tissue
measured.parameter: Tmax (min)
Field format: number, assumed min, no unit text.

For the compound "O=C(NO)[C@@H]1[C@H](c2ccccc2)[C@H]1c1ccc(-c2ncc(F)cn2)cc1" , what Tmax is on record?
30

Also check "O=C(NO)[C@]1(F)[C@H](c2ccccc2)[C@H]1c1ccc(-c2ncc(OC(F)F)cn2)cc1"
30

Also check "O=C(NO)[C@]1(F)[C@H](c2ccccc2)[C@H]1c1ccc(-c2ncc(F)cn2)cc1"
30

====

- test.description: Tmax in C57Bl/6 mouse plasma at 10 mg/kg, po
- Assay type: ADME, organism-based
measured.parameter: Tmax
A complete answer gives the number and then names the unit.

For the molecule "O=C(NO)[C@]1(F)[C@H](c2ccccc2)[C@H]1c1ccc(-c2ncc(OC(F)F)cn2)cc1" , what Tmax is on record?
15 min

Also check "O=C(NO)[C@]1(F)[C@H](c2ccccc2)[C@H]1c1ccc(-c2ncc(F)cn2)cc1"
15 min

Also check "O=C(NO)[C@@H]1[C@H](c2ccccc2)[C@H]1c1ccc(-c2ncc(F)cn2)cc1"
30 min

====

- test.description: Volume of distribution at steady state in C57Bl/6 mouse plasma at 5 mg/kg, iv
- Type: ADME, organism-based
- experimental.setup: read-out: Vdss
measured.parameter: Vd (L/kg)
Field format: number, assumed L/kg, no unit text.

For the compound "O=C(NO)[C@@H]1[C@H](c2ccccc2)[C@H]1c1ccc(-c2ncc(F)cn2)cc1" , what Vd is on record?
4.1

====

- test.description: Volume of distribution at steady state in C57Bl/6 mouse plasma at 2.5 mg/kg, iv
- Type: ADME, organism-based
- experimental.setup: read-out: Vdss
measured.parameter: Vd (L/kg)
Field format: number, assumed L/kg, no unit text.

For the molecule "O=C(NO)[C@]1(F)[C@H](c2ccccc2)[C@H]1c1ccc(-c2ncc(OC(F)F)cn2)cc1" , what Vd is on record?
10

====

- test.description: Tmax in C57Bl/6 mouse brain at 10 mg/kg, po
- Type: ADME, organism-based
measured.parameter: Tmax (min)
Field format: number, assumed min, no unit text.

For the molecule "O=C(NO)[C@]1(F)[C@H](c2ccccc2)[C@H]1c1ccc(-c2ncc(OC(F)F)cn2)cc1" , what Tmax is on record?
60

Also check "O=C(NO)[C@]1(F)[C@H](c2ccccc2)[C@H]1c1ccc(-c2ncc(F)cn2)cc1"
30

Also check "O=C(NO)[C@@H]1[C@H](c2ccccc2)[C@H]1c1ccc(-c2ncc(F)cn2)cc1"
30

====

Kindly state Papp A→B for each of the entries shown.
- test.description: Apparent permeability across apical to basolateral side in MDCK cells expressing MDR1
- Assay type: ADME, cell-based, Canis lupus familiaris
- experimental.setup: dog
Field format: number, assumed ×10⁻⁶ cm/s, no unit text.

For the compound "O=C(NO)[C@@H]1[C@H](c2ccccc2)[C@H]1c1ccc(-c2ncc(Cl)cn2)cc1" , what Papp A→B is on record?
38

Also check "O=C(NO)[C@@H]1[C@H](c2ccccc2)[C@H]1c1ccc(-c2nccc(C(F)(F)F)n2)cc1"
11.4

Also check "O=C(NO)[C@]1(F)[C@H](c2ccccc2)[C@H]1c1ccc(-c2cnco2)cc1"
48.7

Also check "Cc1cnc(-c2ccc([C@@H]3[C@@H](c4ccccc4)[C@@]3(C)C(=O)NO)cc2)nc1"
39.1

Also check "O=C(NO)[C@]1(F)[C@H](c2ccccc2)[C@H]1c1ccc(-c2ncc(OC(F)F)cn2)cc1"
19.2

Also check "O=C(NO)[C@]1(F)[C@H](c2ccccc2)[C@H]1c1ccc(-c2ncc(F)cn2)cc1"
41.8

Also check "O=C(NO)[C@]1(F)[C@H](c2ccccc2)[C@H]1c1ccc(-c2nccc(C(F)(F)F)n2)cc1"
7

Also check "O=C(NO)[C@@H]1[C@H](c2ccccc2)[C@H]1c1ccc(-c2ncc(OC(F)F)cn2)cc1"
12.9

Also check "Cc1cnc(-c2ccc([C@@H]3[C@@H](c4ccccc4)[C@@]3(F)C(=O)NO)cc2)nc1"
36.9

Also check "Cc1cnc(-c2ccc([C@H]3[C@H](C(=O)NO)[C@@H]3c3ccccc3)cc2)nc1"
37.5

Where these numbers come from: ChEMBL document CHEMBL3792315
